Hey, just so you know, these numbers are from PubChem BioAssay (EPA / NIEHS).

read-out: serum amyloid A (SAA), SAA1 (gene 6288); test: BSK_CASM3C_SAA: BioMAP Diversity Plus: CASM3C Assay for serum amyloid A (SAA) Biomarker Activity (AID 2283049); conditions: primary human coronary artery smooth muscle cells; actives raise or lower the signal;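 also: SAA protein level quantified by ELISA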
Activity calls are given as the source filed them. The calls were made as follows: active = hit-call score of the fitted dose curve at least 0.9, where 1 is the maximum; inactive = score below 0.9.
measurement-type: AC50

[[record]]
compound = "O=c1oc2ccccc2c(O)c1C(CC(O)c1ccc(-c2ccc(Br)cc2)cc1)c1ccccc1 (stereo unspecified)"
measurement_type = "AC50"
recorded_measurement = "0.0998 µM (active)"

[[record]]
compound = "CCOP(=S)(OCC)OP(=S)(OCC)OCC"
measurement_type = "AC50"
recorded_measurement = "inactive"

[[record]]
compound = "O=C(N[C@H]1CN2CCC1CC2)c1ccc2c(c1)OCCO2"
measurement_type = "AC50"
recorded_measurement = "inactive"

[[record]]
compound = "CCOP(=O)(OCC)SCCSCC"
measurement_type = "AC50"
recorded_measurement = "inactive"

[[record]]
compound = "CC1(C)[C@H](C(=O)O[C@H](C#N)c2cccc(Oc3ccccc3)c2)[C@@H]1/C=C(\\Cl)C(F)(F)F"
measurement_type = "AC50"
recorded_measurement = "inactive"

[[record]]
compound = "O=[N+]([O-])c1cccc2ccccc12"
measurement_type = "AC50"
recorded_measurement = "inactive"

[[record]]
compound = "C#CCOC(=O)/C=C(C)/C=C/CC(C)CCCC(C)C (stereo unspecified)"
measurement_type = "AC50"
recorded_measurement = "inactive"

[[record]]
compound = "CCOC(=O)C(SP(=S)(OC)OC)c1ccccc1 (stereo unspecified)"
measurement_type = "AC50"
recorded_measurement = "inactive"

[[record]]
compound = "COc1ccccc1N"
measurement_type = "AC50"
recorded_measurement = "inactive"

[[record]]
compound = "CCOC(=O)CCN(SN(C)C(=O)Oc1cccc2c1OC(C)(C)C2)C(C)C"
measurement_type = "AC50"
recorded_measurement = "inactive"

[[record]]
compound = "CN(C)C(=S)S"
measurement_type = "AC50"
recorded_measurement = "inactive"

[[record]]
compound = "Oc1cccc(-c2ccccc2)c1"
measurement_type = "AC50"
recorded_measurement = "inactive"

[[record]]
compound = "CC(C)(C)c1ccccc1O"
measurement_type = "AC50"
recorded_measurement = "inactive"

[[record]]
compound = "CCN(CC)C(=O)C(Cl)=C(C)OP(=O)(OC)OC"
measurement_type = "AC50"
recorded_measurement = "inactive"

[[record]]
compound = "O=C1C=CC(=O)c2ccccc21"
measurement_type = "AC50"
recorded_measurement = "3.37 µM (active)"

[[record]]
compound = "CC(C)N(C(=O)CCl)c1ccccc1"
measurement_type = "AC50"
recorded_measurement = "4.5 µM (active)"

[[record]]
compound = "O=C(CCl)NCO"
measurement_type = "AC50"
recorded_measurement = "inactive"

[[record]]
compound = "CCCCCCCCCCCCc1cccc(S(=O)(=O)O)c1"
measurement_type = "AC50"
recorded_measurement = "inactive"

[[record]]
compound = "Oc1c(Br)cc(Br)cc1Br"
measurement_type = "AC50"
recorded_measurement = "inactive"

[[record]]
compound = "Cc1ccccc1OP(=O)(Oc1ccccc1)Oc1ccccc1"
measurement_type = "AC50"
recorded_measurement = "inactive"

[[record]]
compound = "Cc1cc(Cl)ccc1N"
measurement_type = "AC50"
recorded_measurement = "inactive"

[[record]]
compound = "NC(=O)CCl"
measurement_type = "AC50"
recorded_measurement = "inactive"

[[record]]
compound = "Nc1ccc(N)cc1"
measurement_type = "AC50"
recorded_measurement = "inactive"

[[record]]
compound = "Cc1cc(C(C)(C)c2ccc(O)c(C)c2)ccc1O"
measurement_type = "AC50"
recorded_measurement = "17 µM (active)"

[[record]]
compound = "Cc1cccc(OP(=O)(Oc2cccc(C)c2)Oc2cccc(C)c2)c1"
measurement_type = "AC50"
recorded_measurement = "inactive"

[[record]]
compound = "O=S(=O)(C(Cl)(Cl)Cl)C(Cl)(Cl)Cl"
measurement_type = "AC50"
recorded_measurement = "0.877 µM (active)"

